System: SUD4
assay-info: Antiproliferative activity against BCL6 dependent human SUDHL4 cells after 3 days by CellTiter-Glo assay
Type: functional
setup-conditions: SU-DHL-4, 72 h
Criterion: GI50 strictly less than 10 µM. Met: 1 (yes). Not met: 0 (no).

Incoming: For `O=C1CCc2cc3cc(c2N1CC1CC1)OC/C=C/CO[C@H]1C[C@@H](CO)N(C1)c1cc(n2ncc(Cl)c2n1)N3` , is the recorded GI50 below the cut-off of 10 µM?
Outgoing: 0 (no)

Incoming: Determine if `O=C(O)C[C@@H]1C[C@H]2CN1c1cc(n3ncc(Cl)c3n1)Nc1cc3c(c(c1)OC/C=C/CO2)N(CC1CC(F)(F)C1)C(=O)CC3` shows GI50 strictly lower than 10 µM.
Outgoing: 0 (no)

Incoming: A record lists `COc1cccc(CN2C(=O)CCc3cc4cc(c32)OC/C=C/CO[C@H]2C[C@@H](CO)N(C2)c2cc(n3ncc(Cl)c3n2)N4)c1` . Is its GI50 below 10 µM?
Outgoing: 0 (no)

Incoming: Could you please tell me whether GI50 recorded for `N#Cc1cnn2c3cc(nc12)N1C[C@H](C[C@H]1CO)OCCCCOc1cc(cc2c1NC(=O)CC2)N3` is less than 10 µM?
Outgoing: 0 (no)

Incoming: Item `O=C1CCc2cc3cc(c2N1CCCN1CCOCC1)OC/C=C/CO[C@H]1C[C@@H](CO)N(C1)c1cc(n2ncc(Cl)c2n1)N3` : GI50 beneath 10 µM, strictly?
Outgoing: 0 (no)

Incoming: Bench note: check whether `N#Cc1cnn2c3cc(nc12)N1C[C@H](C[C@H]1CO)OC/C=C/COc1cc(cc2c1NC(=O)CC2)N3` shows GI50 below 10 µM
Outgoing: 1 (yes)
